assay.target: T1, Boi1, P38041
T1 sequence (P38041 1-86, looked up): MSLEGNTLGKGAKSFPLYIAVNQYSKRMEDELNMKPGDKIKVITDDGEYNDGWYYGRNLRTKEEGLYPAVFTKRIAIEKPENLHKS
assay.summary: SPOT array
test.context: median of control spots 1162

binder | SPOT intensity
PAPPPPPRASRPTPN | 1
KKEKKPPKIPKKVYT | 0
GPPPPLPPPLFPSSS | 0
QFDLKMPSKPIHNLK | 0
